- measurement description: qHTS Assay for Foot and Mouth Disease Virus Antivirals: Primary Screen against the MLPCN compound library; also: nearly all actives have a fitted effect of over 55% in size
- condition parameters: FMDV antiviral cell-based qHTS; series mostly up to 57.9 µM
The campaign covered roughly 410,000 compounds. About 2,000 (0.49%) were called active. Roughly 8% stayed inconclusive and do not appear here. Calls follow the shape of the full dose curve; tested in HEK293 reporter line. The entries come from a sample that favours actives as a whole.
Write down one outcome, taken from active, inactive

In this assay, the call recorded for `O=C1C(C=Nc2ccccc2)=C(O)c2ccccc21` was what?
active

Give the logged outcome of this assay for the following compound: `COc1ccc(Oc2ncc3nc(-c4ccc(Cl)cc4)c(=O)n(CCC#N)c3n2)cc1`
inactive

Kindly provide the recorded test outcome for the following compound: `Cn1c(=O)c2c(SCC(=O)N3CCN(c4ccccc4)CC3)nc(C3CC3)nc2n(C)c1=O`
inactive

Just curious, what result did `COc1ccccc1NC(=O)c1c(N=Cc2cccc([N+](=O)[O-])c2)cnn1C` get here?
inactive

Dear all, I need the recorded test outcome for CC1(Cc2cc(Cl)ccc2C(F)(F)F)C(=O)Nc2c(Cl)cccc21 (stereo unspecified) , thank you.
inactive

# outcome recorded in this test, key = `Cc1cc(OCc2nc(-c3ccncc3)no2)cc(C)c1Cl`
inactive

Hi, do you know how CCN(C(=O)COC(=O)/C=C/c1cccc(Br)c1)C1CCS(=O)(=O)C1 (stereo unspecified) came out in this test?
inactive

Assay result, entry `COc1ccccc1N/C=C/c1onc(C)c1[N+](=O)[O-]` — outcome?
active

Hey, what did the test say about O=C(NCCc1ccc(F)cc1)C(=O)NCC(c1cccs1)S(=O)(=O)c1ccccc1 (stereo unspecified) ?
inactive

What call does the record list for CC(C)c1cccc(C(C)C)c1NC(=O)CNCC(O)c1ccccc1 (stereo unspecified) ?
inactive

Test call for this compound, please: `O=C(NC(c1ccccc1)c1ccccc1)c1ccc(S(=O)(=O)C(F)F)cc1`
inactive

Test call, this compound: CCCN1C(=O)c2cc(C(=O)Nc3ccccc3OC)ccc2C1Nc1ccccc1OC (stereo unspecified)
inactive

Which outcome did this test record for the compound `COC1=CC(=O)c2ccccc2C1=O` ?
inactive

For `COc1ccc(C[C@H]2CN3C(=NC[C@@H]3Cc3ccc(O)cc3)N2C[C@H](C)NC(=O)CCC2CCCCC2)cc1` , what call appears in the results of this test?
inactive

Query: recorded result category for CC(C(=O)Nc1ccccc1-c1ccccc1)N(C)Cc1nc2ccccc2c(=O)[nH]1 (stereo unspecified) in this test
inactive

Please state the recorded outcome for this compound: `CSc1ccccc1OCc1cc(C(=O)NCC(C)(C)N2CCOCC2)no1`
inactive

What did the test return for `N=c1ccn(Cc2ccc(Cl)c(Cl)c2)cc1` ?
inactive

Look up the recorded call for `CN(Cc1nc2ccccc2c(=O)[nH]1)C(=O)c1cccc(S(=O)(=O)N2CCCCCC2)c1` in this test.
inactive

// outcome(item) with item = `COc1cccc(-c2nc(CS(=O)(=O)CC(=O)NCCCc3ccccc3)c(C)o2)c1`
inactive

Can you look up the reported call for `Cc1cccc(-n2c(O)c(C=Nc3ccccc3)c3ccccc3c2=O)n1` for me?
inactive

Kindly provide the recorded test outcome for the following compound: `COc1cc(NC(=O)N2CCC3(CC2)Nc2ccccc2-n2cccc23)cc(OC)c1OC`
inactive
